Test system: southern armyworm (Prodenia Eridania, (Cram.))
Experiment: Southern Armyworm Leaf Spray Test
Type: in vivo
Design: key: A: excellent control; B: partial control; C: no control
Conditions: larvae; 500 parts of test compound per million parts of final formulation; 3 days
Property Measured: Southern Armyworm

>>> value_observed("CSC(C)=NOC(=O)N(C)SN(C)C(=O)ON=C(C)[S+](C)[O-] (stereo not shown)")
"A"
>>> value_observed("CSC(C)=NOC(=O)N(C)SN(C)C(=O)ON=C(C)S(C)(=O)=O")
"A"
>>> value_observed("CC(=NOC(=O)N(C)SN(C)C(=O)ON=C(C)[S+](C)[O-])[S+](C)[O-] (stereo not shown)")
"C"
>>> value_observed("CC(=NOC(=O)N(C)SN(C)C(=O)ON=C(C)S(C)(=O)=O)S(C)(=O)=O")
"C"

---

Assay: Mammalian Toxicity Test (peroral toxicity)
Details: in vivo, po, rat, read-out: A. O. Rat (LD50)
Property Measured: LD50 (mg/kg)

>>> value_observed("CSC(C)=NOC(=O)N(C)SN(C)C(=O)ON=C(C)S(C)(=O)=O")
285
>>> value_observed("CSC(C)=NOC(=O)N(C)SN(C)C(=O)ON=C(C)[S+](C)[O-] (centres unmarked)")
202

---

Tested on: bean aphid (Aphis Fabae Scop.)
Experiment: Bean Aphid Foliage Spray Test
Format: in vivo
Set-up: key: A: excellent control; B: partial control; C: no control
Conditions: 500 parts of test compound per million parts of final formulation; 24 hour
Property Measured: Aphid

>>> value_observed("CSC(C)=NOC(=O)N(C)SN(C)C(=O)ON=C(C)[S+](C)[O-] (stereo not shown)")
"A"
>>> value_observed("CC(=NOC(=O)N(C)SN(C)C(=O)ON=C(C)S(C)(=O)=O)S(C)(=O)=O")
"C"
>>> value_observed("CSC(C)=NOC(=O)N(C)SN(C)C(=O)ON=C(C)S(C)(=O)=O")
"A"
>>> value_observed("CC(=NOC(=O)N(C)SN(C)C(=O)ON=C(C)[S+](C)[O-])[S+](C)[O-] (stereo not shown)")
"C"

These measurements were taken from patent US4072751A.
